- target-of-assay: T1, Human BCMA (human, UniProt Q02223 1-54, limits assumed)
- T1 construct: Soluble analyte in SPR; construct not described; also called huBCMA; B-cell maturation antigen
- T1 sequence (looked up): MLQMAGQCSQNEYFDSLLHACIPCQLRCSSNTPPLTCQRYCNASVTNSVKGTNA
- assay-procedure: SPR, IgG immobilised, 37 C
readout: pKd
pKd here is simply -log10 of the concentration when that concentration is written in mol/L.

Solved cases (2 shown):
binder	reported-measurement
L3.PY/L1.AH/H2.YQ (antibody, V domains shown, IgG) VH: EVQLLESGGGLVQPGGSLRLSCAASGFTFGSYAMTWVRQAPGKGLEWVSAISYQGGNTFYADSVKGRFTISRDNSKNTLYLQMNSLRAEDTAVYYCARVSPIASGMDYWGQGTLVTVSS VL: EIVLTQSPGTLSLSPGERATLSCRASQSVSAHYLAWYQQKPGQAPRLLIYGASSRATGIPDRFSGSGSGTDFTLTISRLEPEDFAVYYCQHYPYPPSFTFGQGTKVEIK	9.10
L3.PY/L1.PS/H3.TAQ (antibody, V domains shown, IgG) VH: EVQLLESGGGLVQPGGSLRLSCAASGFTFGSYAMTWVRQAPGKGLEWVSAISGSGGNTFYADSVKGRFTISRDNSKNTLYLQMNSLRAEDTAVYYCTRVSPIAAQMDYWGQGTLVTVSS VL: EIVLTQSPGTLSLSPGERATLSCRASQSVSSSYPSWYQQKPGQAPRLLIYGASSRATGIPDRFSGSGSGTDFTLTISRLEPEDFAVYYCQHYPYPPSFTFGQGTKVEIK	9.12

// below: pKd requested for another binder
// pKd value for L3.PY/L3.KY/H3.TAQ (antibody, V domains shown, IgG) VH: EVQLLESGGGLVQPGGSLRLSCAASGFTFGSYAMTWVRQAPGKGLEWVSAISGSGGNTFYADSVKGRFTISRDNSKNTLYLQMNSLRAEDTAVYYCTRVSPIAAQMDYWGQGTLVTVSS VL: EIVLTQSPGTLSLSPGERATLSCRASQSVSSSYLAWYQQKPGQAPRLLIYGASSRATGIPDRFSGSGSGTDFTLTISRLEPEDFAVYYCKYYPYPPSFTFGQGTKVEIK : 9.64
